System: SNB-75 CNS
Protocol: NCI tumour cell line growth inhibition, 48 h
Quantity: TGI (µM)
The answer is to be given in µM; state only the numeric part.

1) Cc1[cH-]c(=O)n(-c2ccccc2)n1.[Au+].[Au].c1ccc([PH+](c2ccccc2)c2ccccc2)cc1.c1ccc([PH+](c2ccccc2)c2ccccc2)cc1    39.3

Note to self: TGI recorded for CN(C)CC(O)c1ccc(/C=C/c2ccc(Cl)cc2)cc1 (stereo not given) was 4.18

Note to self: TGI recorded for O=C(C(=O)n1ccc2ccccc21)n1ccc2ccccc21 was 56

Note to self: TGI recorded for CN1CCN(c2ccc(Nc3ncc(Cl)c(NC[C@@H]4CCCO4)n3)cc2)CC1 was 4.72

###

System: HOP-92 NSCLC
Protocol: NCI tumour cell line growth inhibition, 48 h; in the data active means GI50 below about 0.43 µM; inactive means the rest
Form entry, call: pick from active, inactive

1. COC(=O)[C@]12CC[C@@H](C)[C@H](C)[C@@H]1C1=CC[C@@H]3[C@@]4(C)C[C@@H](O)[C@H](O)[C@@](C)(CO)[C@@H]4[C@H](O)C[C@@]3(C)[C@]1(C)CC2    inactive
2. C#Cc1cccc(Nc2nc3cc([N+](=O)[O-])ccc3nc2Nc2ccc(O)cc2)c1    inactive
3. O=C1NC(=NCc2ccccc2)S/C1=C\c1ccc2ncccc2c1    inactive
4. c1ccc(-c2n(Cc3ccc4ccccc4n3)cc[n+]2Cc2ccc3ccccc3c2)cc1    active

Q: Can you look up the reported call for COc1ccccc1NC(=O)c1cc2cc(Br)ccc2cc1O for me?
Result: inactive

Q: Can you look up the reported call for COc1cc2c(cc1OC)-c1cc(OC)c(OC)cc1C(CN(C)C)C2 (stereo not drawn) for me?
Result: inactive

Q: Can you look up the reported call for OC(c1cc(C(F)(F)F)nc2c(C(F)(F)F)cccc12)C1CCCCN1 (stereo not drawn) for me?
Result: inactive

Q: Can you look up the reported call for NCCNCCNCCN for me?
Result: inactive

###

System: NCI/ADR-RES ovarian
Protocol: NCI tumour cell line growth inhibition, 48 h
Quantity: TGI

// worked examples, TGI included
1. OC(c1cc(C(F)(F)F)nc2c(C(F)(F)F)cccc12)C1CCCCN1 (centres undefined)    5.95 µM
2. CON(C)C(=O)C(C)N(Cc1ccccc1)Cc1ccccc1 (centres undefined)    > 100 µM

Note to self: TGI recorded for CC1NC(=O)C(C)C(c2ccccc2)N(N=O)C1c1ccccc1 (centres undefined) was > 100 µM

Note to self: TGI recorded for Nc1ncc2c(n1)-c1ccccc1OC2N1CCCCC1 (centres undefined) was > 100 µM

###

Test system: NCI-H226 lung
Protocol: NCI tumour cell line growth inhibition, 48 h
Quantity: TGI

// worked examples, TGI included
1. CCOC(=O)C1Sc2ccccc2N=C1C (centres undefined)    > 100 µM
2. Cc1[nH]c(=O)nc2sc(=NC3CCCCC3)n(C3CCCCC3)c(=O)c12    > 100 µM
3. COC(=O)CC(C)(NS(=O)c1ccc(C)cc1)c1ccccc1 (centres undefined)    > 100 µM
4. CSC(=O)c1sc(SC)[n+](-c2ccccc2)c1O    52.9 µM
5. Cc1ccc(S(=O)(=O)N2CCC2c2ccccc2)cc1 (centres undefined)    > 100 µM

Note to self: TGI recorded for CCOC(=O)c1csc(NC(=O)CN2CCCC2)n1 was > 100 µM

Sourced from PubChem BioAssay (NCI)
